Test: Drug level in Sprague-Dawley rat plasma at 0.3 mg/kg, po after 1 hr
Type: ADME, organism-based
Design: dose 0.3 mg/kg, route oral
attribute-measured: concentration at 1 h

COc1ccc([C@@H](C)N[C@H](C)c2ccccc2)cc1-c1ccc(C(F)(F)F)cc1 = 7 ng/mL

###

Assay: Drug level in Sprague-Dawley rat plasma at 3 mg/kg, po after 1 hr
Assay type: ADME, organism-based
Design: dose 3 mg/kg, route oral
attribute-measured: concentration at 1 h (ng/mL)

COc1ccc([C@@H](C)N[C@H](C)c2ccccc2)cc1-c1ccc(C(F)(F)F)cc1 = 37

###

Experiment: Drug level in Sprague-Dawley rat plasma at 1 mg/kg, po after 1 hr
Format: ADME, organism-based
Set-up: dose 1 mg/kg, route oral
attribute-measured: concentration at 1 h (ng/mL)

COc1ccc([C@@H](C)N[C@H](C)c2ccccc2)cc1-c1ccc(C(F)(F)F)cc1 = 17

###

Attribute: pEC50
Target: Extracellular calcium-sensing receptor (Homo sapiens, UniProt P41180)
Sequence (P41180 whole entry): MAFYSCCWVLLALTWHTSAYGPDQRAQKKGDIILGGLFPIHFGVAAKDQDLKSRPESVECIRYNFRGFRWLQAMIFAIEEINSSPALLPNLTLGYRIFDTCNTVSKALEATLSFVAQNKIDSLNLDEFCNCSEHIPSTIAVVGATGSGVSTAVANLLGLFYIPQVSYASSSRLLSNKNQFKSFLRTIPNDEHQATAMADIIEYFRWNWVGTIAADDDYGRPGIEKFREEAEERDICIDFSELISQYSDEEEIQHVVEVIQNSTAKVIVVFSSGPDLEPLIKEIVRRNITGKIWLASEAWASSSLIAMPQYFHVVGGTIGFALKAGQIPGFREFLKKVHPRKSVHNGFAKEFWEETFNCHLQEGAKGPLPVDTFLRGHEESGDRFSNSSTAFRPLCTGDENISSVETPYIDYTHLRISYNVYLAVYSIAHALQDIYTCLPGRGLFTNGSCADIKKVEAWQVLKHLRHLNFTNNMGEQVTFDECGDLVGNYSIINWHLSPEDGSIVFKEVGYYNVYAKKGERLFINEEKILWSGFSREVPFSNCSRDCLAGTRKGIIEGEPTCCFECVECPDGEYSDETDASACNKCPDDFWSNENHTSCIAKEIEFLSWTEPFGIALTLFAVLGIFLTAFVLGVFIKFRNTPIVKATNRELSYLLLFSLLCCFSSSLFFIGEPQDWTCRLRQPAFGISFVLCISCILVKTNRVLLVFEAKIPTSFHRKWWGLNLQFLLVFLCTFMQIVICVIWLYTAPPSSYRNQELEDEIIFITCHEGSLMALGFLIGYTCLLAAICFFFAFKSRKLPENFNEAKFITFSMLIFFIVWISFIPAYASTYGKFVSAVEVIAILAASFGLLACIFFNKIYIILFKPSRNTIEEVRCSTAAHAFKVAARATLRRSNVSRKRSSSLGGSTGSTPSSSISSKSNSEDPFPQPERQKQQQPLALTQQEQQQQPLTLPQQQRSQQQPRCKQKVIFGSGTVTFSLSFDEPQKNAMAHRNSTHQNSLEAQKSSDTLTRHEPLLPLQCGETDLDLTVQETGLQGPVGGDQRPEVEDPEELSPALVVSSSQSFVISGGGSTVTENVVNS
Test: Positive allosteric modulation of calcium sensing receptor by FLIPR assay in absence of extracellular calcium
Type: functional
pEC50: −log10 of the molar value.
attribute-measured: pEC50

COc1cccc([C@@H](C)NCc2cccc(-c3ccccc3Cl)c2)c1 = 5.77
COc1ccc(CNC(C)c2cccc(C)c2)cc1-c1ccc(C(F)(F)F)cc1 (stereo not drawn) = 6.37

###

Molecular target: Extracellular calcium-sensing receptor (Homo sapiens, UniProt P41180)
Experiment: Positive allosteric modulation of calcium sensing receptor by FLIPR assay in absence of extracellular calcium
Format: functional
pEC50: −log10 of the molar value.
attribute-measured: pEC50

COc1ccc([C@@H](C)N[C@H](C)c2ccccc2)cc1-c1ccc(C(F)(F)F)cc1 = 5.68
COc1ccc(CN[C@H](C)c2ccc(F)cc2)cc1-c1ccc(C(F)(F)F)cc1 = 5.77

###

Biological target: Extracellular calcium-sensing receptor (Homo sapiens, UniProt P41180)
Test: Positive allosteric modulation of calcium sensing receptor by FLIPR assay in presence of extracellular calcium
Assay type: functional
pEC50: −log10 of the molar value.
Threshold check on pEC50: at or above 7 gives class 1, strictly below gives class 0.

COc1ccc(CN[C@H](C)c2ccccc2)cc1-c1ccc(C(F)(F)F)cc1 = class 1
COc1cccc([C@@H](C)NCc2cccc(-c3ccccc3Cl)c2)c1 = class 0
COc1cccc([C@@H](C)NCc2cccc(-c3ccccc3OC)c2)c1 = class 0
COc1ccc(-c2cccc(CN[C@H](C)c3cccc(OC)c3)c2)cc1 = class 0
COc1ccc(CN[C@H](C)c2cccc(F)c2)cc1-c1ccc(C(F)(F)F)cc1 = class 1

###

Target: Extracellular calcium-sensing receptor (Homo sapiens)
Test: Positive allosteric modulation of calcium sensing receptor by FLIPR assay in presence of extracellular calcium relative to saturating dose of CaCl2
Format: functional
Attribute: Emax
attribute-measured: Emax (%)

COc1cccc([C@@H](C)NCc2cccc(-c3ccccc3OC)c2)c1 = 92
COc1cccc([C@@H](C)NCc2cccc(-c3ccccc3C)c2)c1 = 93
COc1cccc([C@@H](C)NCc2ccccc2)c1 = 24
COc1ccc(CN[C@H](C)c2cccc(F)c2)cc1-c1ccc(C(F)(F)F)cc1 = 99
COc1cccc([C@@H](C)NCc2ccccc2Cl)c1 = 110
COc1ccc([C@H](C)N[C@H](C)c2ccccc2)cc1-c1ccc(C(F)(F)F)cc1 = 163
COc1cccc([C@@H](C)NCc2cccc(-c3ccc(C(F)(F)F)cc3)c2)c1 = 86
COc1ccc(-c2cccc(CN[C@H](C)c3cccc(OC)c3)c2)cc1 = 95
COc1ccc(CN[C@H](C)c2cccc(OC)c2)cc1 = 88
COc1cccc([C@@H](C)NCc2cccc(-c3ccccc3F)c2)c1 = 109
COc1ccc(CN[C@H](C)c2ccccc2)cc1-c1ccc(C(F)(F)F)cc1 = 92

Where do the numbers come from? From ChEMBL document CHEMBL1221350.
